- System: HeLa Kyoto
- experiment-description: thermal stability score vs G1/S (z-score of summed log2 fold changes over temperatures); higher = more thermally stable than in G1/S
- setup-conditions: cell cycle stage: early G1 (4.5 h after nocodazole release)
Where thermal stability score equals or exceeds -0.1, the correct label is MET; where it does not, the label is NOT MET.

{"columns": ["input-sequence", "class-name"],
 "data": [
  ["MTMDGDSSTTDASQLGISADYIGGSHYVIQPHDDTEDSMNDHEDTNGSKESFREQDIYLPIANVARIMKNAIPQTGKIAKDAKECVQECVSEFISFITSEASERCHQEKRKTINGEDILFAMSTLGFDSYVEPLKLYLQKFREAMKGEKGIGGAVTATDGLSEELTEEAFTNQLPAGLITTDGQQQNVMVYTTSYQQISGVQQIQFS [NFYB]", "MET"],
  ["MGNLLKVLTCTDLEQGPNFFLDFENAQPTESEKEIYNQVNVVLKDAEGILEDLQSYRGAGHEIREAIQHPADEKLQEKAWGAVVPLVGKLKKFYEFSQRLEAALRGLLGALTSTPYSPTQHLEREQALAKQFAEILHFTLRFDELKMTNPAIQNDFSYYRRTLSRMRINNVPAEGENEVNNELANRMSLFYAEATPMLKTLSDATTKFVSENKNLPIENTTDCLSTMASVCRVMLETPEYRSRFTNEETVSFCLRVMVGVIILYDHVHPVGAFAKTSKIDMKGCIKVLKDQPPNSVEGLLNALRYTTKHLNDETTSKQIKSMLQ [FAM49B]", "MET"],
  ["MYTLLSGLYKYMFQKDEYCILILGLDNAGKTTFLEQSKTRFNKNYKGMSLSKITTTVGLNIGTVDVGKARLMFWDLGGQEELQSLWDKYYAECHGVIYVIDSTDEERLAESKQAFEKVVTSEALCGVPVLVLANKQDVETCLSIPDIKTAFSDCTSKIGRRDCLTQACSALTGKGVREGIEWMVKCVVRNVHRPPRQRDIT [ARFRP1]", "MET"],
  ["MGRTSKDKRDVYYRLAKENGWRARSAFKLLQLDKEFQLFQGVTRAVDLCAAPGSWSQVLSQKIGGQGSGHVVAVDLQAMAPLPGVVQIQGDITQLSTAKEIIQHFKGCPADLVVCDGAPDVTGLHDVDEYMQAQLLLAALNIATHVLKPGGCFVAKIFRGRDVTLLYSQLQVFFSSVLCAKPRSSRNSSIEAFAVCQGYDPPEGFIPDLSKPLLDHSYDPDFNQLDGPTRIIVPFVTCGDLSSYDSDRSYPLDLEGGSEYKYTPPTQPPISPPYQEACTLKRKGQLAKEIRPQDCPISRVDTFPQPLAAPQCHTLLAPEMEDNEMSCSP [FTSJ1]", "NOT MET"],
  ["MAAAWGSSLTAATQRAVTPWPRGRLLTASLGPQARREASSSSPEAGEGQIRLTDSCVQRLLEITEGSEFLRLQVEGGGCSGFQYKFSLDTVINPDDRVFEQGGARVVVDSDSLAFVKGAQVDFSQELIRSSFQVLNNPQAQQGCSCGSSFSIKL [ISCA2]", "NOT MET"],
  ["MELTIFILRLAIYILTFPLYLLNFLGLWSWICKKWFPYFLVRFTVIYNEQMASKKRELFSNLQEFAGPSGKLSLLEVGCGTGANFKFYPPGCRVTCIDPNPNFEKFLIKSIAENRHLQFERFVVAAGENMHQVADGSVDVVVCTLVLCSVKNQERILREVCRVLRPGGAFYFMEHVAAECSTWNYFWQQVLDPAWHLLFDGCNLTRESWKALERASFSKLKLQHIQAPLSWELVRPHIYGYAVK [METTL7A]", "MET"],
  ["MDALKSAGRALIRSPSLAKQSWGGGGRHRKLPENWTDTRETLLEGMLFSLKYLGMTLVEQPKGEELSAAAIKRIVATAKASGKKLQKVTLKVSPRGIILTDNLTNQLIENVSIYRISYCTADKMHDKVFAYIAQSQHNQSLECHAFLCTKRKMAQAVTLTVAQAFKVAFEFWQVSKEEKEKRDKASQEGGDVLGARQDCTPSLKSLVATGNLLDLEETAKAPLSTVSANTTNMDEVPRPQALSGSSVVWELDDGLDEAFSRLAQSRTNPQVLDTGLTAQDMHYAQCLSPVDWDKPDSSGTEQDDLFSF [LDLRAP1]", "NOT MET"],
  ["MKSVIYHALSQKEANDSDVQPSGAQRAEAFVRAFLKRSTPRMSPQAREDQLQRKAVVLEYFTRHKRKEKKKKAKGLSARQRRELRLFDIKPEQQRYSLFLPLHELWKQYIRDLCSGLKPDTQPQMIQAKLLKADLHGAIISVTKSKCPSYVGITGILLQETKHIFKIITKEDRLKVIPKLNCVFTVETDGFISYIYGSKFQLRSSERSAKKFKAKGTIDL [POP4]", "NOT MET"]
]}

Exercise: Would you say MEANGLGPQGFPELKNDTFLRAAWGEETDYTPVWCMRQAGRYLPEFRETRAAQDFFSTCRSPEACCELTLQPLRRFPLDAAIIFSDILVVPQALGMEVTMVPGKGPSFPEPLREEQDLERLRDPEVVASELGYVFQAITLTRQRLAGRVPLIGFAGAPWTLMTYMVEGGGSSTMAQAKRWLYQRPQASHQLLRILTDALVPYLVGQVVAGAQALQLFESHAGHLGPQLFNKFALPYIRDVAKQVKARLREAGLAPVPMIIFAKDGHFALEELAQAGYEVVGLDWTVAPKKARECVGKTVTLQGNLDPCALYASEEEIGQLVKQMLDDFGPHRYIANLGHGLYPDMDPEHVGAFVDAVHKHSRLLRQN [UROD] shows thermal stability score at minimum -0.1?
Key: NOT MET

Exercise: Textbook exercise: given the entry MSLSDWHLAVKLADQPLTPKSILRLPETELGEYSLGGYSISFLKQLIAGKLQESVPDPELIDLIYCGRKLKDDQTLDFYGIQPGSTVHVLRKSWPEPDQKPEPVDKVAAMREFRVLHTALHSSSSYREAVFKMLSNKESLDQIIVATPGLSSDPIALGVLQDKDLFSVFADPNMLDTLVPAHPALVNAIVLVLHSVAGSAPMPGTDSSSRSMPSSSYRDMPGGFLFEGLSDDEDDFHPNTRSTPSSSTPSSRPASLGYSGAAGPRPITQSELATALALASTPESSSHTPTPGTQGHSSGTSPMSSGVQSGTPITNDLFSQALQHALQASGQPSLQSQWQPQLQQLRDMGIQDDELSLRALQATGGDIQAALELIFAGGAP [UBL7] , state whether its thermal stability score is greater than or equal to -0.1.
Key: NOT MET

###

- System: HeLa Kyoto
- experiment-description: melting temperature (median over replicates), in situ; higher = more thermally stable
- setup-conditions: cell cycle stage: mitosis
property-measured: melting temperature (°C)
One number for each entry, in °C.

# example entries with known answers
{"columns": ["input-sequence", "study-system", "scale-unit", "melting temperature"],
 "data": [
  ["MGKSDFLTPKAIANRIKSKGLQKLRWYCQMCQKQCRDENGFKCHCMSESHQRQLLLASENPQQFMDYFSEEFRNDFLELLRRRFGTKRVHNNIVYNEYISHREHIHMNATQWETLTDFTKWLGREGLCKVDETPKGWYIQYIDRDPETIRRQLELEKKKKQDLDDEEKTAKFIEEQVRRGLEGKEQEVPTFTELSRENDEEKVTFNLSKGACSSSGATSSKSSTLGPSALKTIGSSASVKRKESSQSSTQSKEKKKKKSALDEIMEIEEEKKRTARTDYWLQPEIIVKIITKKLGEKYHKKKAIVKEVIDKYTAVVKMIDSGDKLKLDQTHLETVIPAPGKRILVLNGGYRGNEGTLESINEKTFSATIVIETGPLKGRRVEGIQYEDISKLA [KIN]", "HeLa Kyoto", "°C", 49.3],
  ["MGLLDLCEEVFGTADLYRVLGVRREASDGEVRRGYHKVSLQVHPDRVGEGDKEDATRRFQILGKVYSVLSDREQRAVYDEQGTVDEDSPVLTQDRDWEAYWRLLFKKISLEDIQAFEKTYKGSEEELADIKQAYLDFKGDMDQIMESVLCVQYTEEPRIRNIIQQAIDAGEVPSYNAFVKESKQKMNARKRRAQEEAKEAEMSRKELGLDEGVDSLKAAIQSRQKDRQKEMDNFLAQMEAKYCKSSKGGGKKSALKKEKK [DNAJC9]", "HeLa Kyoto", "°C", 51.8],
  ["MSPLSAARAALRVYAVGAAVILAQLLRRCRGGFLEPVFPPRPDRVAIVTGGTDGIGYSTAKHLARLGMHVIIAGNNDSKAKQVVSKIKEETLNDKVEFLYCDLASMTSIRQFVQKFKMKKIPLHVLINNAGVMMVPQRKTRDGFEEHFGLNYLGHFLLTNLLLDTLKESGSPGHSARVVTVSSATHYVAELNMDDLQSSACYSPHAAYAQSKLALVLFTYHLQRLLAAEGSHVTANVVDPGVVNTDVYKHVFWATRLAKKLLGWLLFKTPDEGAWTSIYAAVTPELEGVGGHYLYNEKETKSLHVTYNQKLQQQLWSKSCEMTGVLDVTL [DHRSX]", "HeLa Kyoto", "°C", 52.9],
  ["MADLLGSILSSMEKPPSLGDQETRRKAREQAARLKKLQEQEKQQKVEFRKRMEKEVSDFIQDSGQIKKKFQPMNKIERSILHDVVEVAGLTSFSFGEDDDCRYVMIFKKEFAPSDEELDSYRRGEEWDPQKAEEKRKLKELAQRQEEEAAQQGPVVVSPASDYKDKYSHLIGKGAAKDAAHMLQANKTYGCVPVANKRDTRSIEEAMNEIRAKKRLRQSGEELPPTS [SPAG7]", "HeLa Kyoto", "°C", 55]
]}

Now consider the entry below.
Exercise: Requested field: melting temperature. Item: MQAERGARGGRGRRPGRGRPGGDRHSERPGAAAAVARGGGGGGGGDGGGRRGRGRGRGFRGARGGRGGGGAPRGSRREPGGWGAGASAPVEDDSDAETYGEENDEQGNYSKRKIVSNWDRYQDIEKEVNNESGESQRGTDFSVLLSSAGDSFSQFRFAEEKEWDSEASCPKQNSAFYVDSELLVRALQELPLCLRLNVAAELVQGTVPLEVPQVKPKRTDDGKGLGMQLKGPLGPGGRGPIFELKSVAAGCPVLLGKDNPSPGPSRDSQKPTSPLQSAGDHLEEELDLLLNLDAPIKEGDNILPDQTSQDLKSKEDGEVVQEEEVCAKPSVTEEKNMEPEQPSTSKNVTEEELEDWLDSMIS [AVEN]
Key: 52.6
